target: EP2-Subtyp des humanen PGE2-Rezeptors (Homo sapiens); assay: cAMP antagonism test (HTRF cAMP, in presence of PGE2); details: cAMP Antagonismustest, PGE2 as agonist; read-out: Antagonismus [IC50
Sequence (P43116 whole entry): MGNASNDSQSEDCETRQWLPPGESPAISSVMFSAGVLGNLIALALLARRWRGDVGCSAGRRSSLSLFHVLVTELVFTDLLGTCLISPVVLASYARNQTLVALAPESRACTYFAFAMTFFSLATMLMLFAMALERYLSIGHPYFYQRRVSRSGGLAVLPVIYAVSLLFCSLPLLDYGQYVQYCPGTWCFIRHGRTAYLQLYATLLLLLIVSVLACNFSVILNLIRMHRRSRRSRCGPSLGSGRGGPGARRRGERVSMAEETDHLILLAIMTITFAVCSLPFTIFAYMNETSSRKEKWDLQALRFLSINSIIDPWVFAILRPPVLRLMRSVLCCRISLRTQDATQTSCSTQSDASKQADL
Value Kind: IC50 (µM)
Expressed in µM, but write only the number.

Compound	System	Value Kind	Endpoint Result
Cc1[nH]c2c(F)ccc(C)c2c1CCNC(=O)/C=C/c1cncc2ccccc12 [Beispiel 47]	EP2-Subtyp des humanen PGE2-Rezeptors (Homo sapiens)	IC50	1.5
Cc1[nH]c2c(F)ccc(C)c2c1CCNC(=O)/C=C/c1cccc(S(N)(=O)=O)c1 [Beispiel 36]	EP2-Subtyp des humanen PGE2-Rezeptors (Homo sapiens)	IC50	1
Cc1[nH]c2c(F)ccc(C)c2c1CCNC(=O)C=Cc1ccncc1 (mixture of isomers) [Beispiel 2]	EP2-Subtyp des humanen PGE2-Rezeptors (Homo sapiens)	IC50	1.5

In the following, a different compound is considered.
Give IC50; test system EP2-Subtyp des humanen PGE2-Rezeptors (Homo sapiens); compound Cc1[nH]c2c(F)ccc(C)c2c1CCNC(=O)/C=C/c1ccc(OCCN(C)C)cc1 [Beispiel 18]
2.2
